- Test system: WNV (WN-hRuPac cells)
- protocol_summary: WNV antiviral activity, WN-hRuPac cells, Renilla luciferase
- Format: cell-based, West Nile virus
- measurement_conditions: West Nile virus; Secondary Data; WNV; read-out: WNV EC50
observable: log10 EC50 (log10 of the value in µM)
Units before log transform: µM; reported quantity: EC50; transform: log10.

// worked examples, log10 EC50 included
| molecular_string | log10 EC50 |
| --- | --- |
| Cc1cc(Nc2ccc(C)c(Cl)c2)c2cccc(C)c2n1 | 0.80 |
| CCOC(=O)c1cnc2c(C(F)(F)F)cccc2c1Nc1ccc(S(=O)(=O)Nc2nc(C)cc(C)n2)cc1 | 1.12 |
| CCOC(=O)c1cnc2ccc(OCC)cc2c1Nc1ccccc1CC | 1.59 |
| Cc1cc(Nc2cccc(C(F)(F)F)c2)c2cc(Cl)ccc2n1 | 0.92 |
| Cc1ccc(Nc2c3c(nc4ccc(C)cc24)CCC3)cc1 | 1.24 |
| C=CCNc1c2c(nc3ccccc13)CCC2 | 1.29 |
| COc1ccc2nc(C)cc(Nc3ccc(OCc4ccccc4Cl)cc3)c2c1 | 0.74 |
| CCOc1ccc2nc(C)cc(Nc3ccc(C)c(Cl)c3)c2c1 | 0.50 |
| CCOC(=O)c1cnc2ccc(OC)cc2c1NCc1ccco1 | 0.53 |
| c1coc(CNc2c3c(nc4ccccc24)CCC3)c1 | 0.99 |

Batch request: log10 EC50 for each of the following molecules.
1. CCOc1ccc2nc(C)cc(Nc3ccc(Cl)cc3)c2c1
2. COC(=O)c1ccc(Nc2cc(C)nc3c(C)cccc23)cc1

Return:
1: 1.04; 2: 1.35

Batch request: log10 EC50 for each of the following molecules.
1. COc1cccc2c(Nc3ccc4c(c3)OCCO4)cc(C)nc12
2. CCOC(=O)c1cnc2ccccc2c1NCc1ccco1

Return:
1. 1.35
2. 0.66

* * *

- protocol_summary: in vitro
- measurement_conditions: HCV CC50
observable: CC50

| compound | observable | result_value |
| --- | --- | --- |
| CCOc1ccc2nc(C)cc(Nc3ccc(OC)c(OC)c3)c2c1 | CC50 | 6.69 µM |
| Cc1cc(Nc2cccc(Cl)c2C)c2cccc(C)c2n1 | CC50 | 13 µM |
| CCOc1ccc2nc(C)cc(Nc3cc(Cl)ccc3OC)c2c1 | CC50 | 11.8 µM |
| CCOC(=O)c1cnc2ccc(C)cc2c1Nc1ccc(N2CCOCC2)cc1 | CC50 | 19 µM |

Batch request: CC50 for each of the following compounds.
1. COC(=O)c1ccc(Nc2cc(C)nc3cc(Cl)ccc23)cc1
2. CCOC(=O)c1cnc2ccc(C)cc2c1NCc1ccco1

Return:
1. ≥ 75 µM
2. ≥ 75 µM

* * *

Please provide measured CC50 for the entries that follow.
- protocol_summary: in vitro
- measurement_conditions: SINV CC50

// worked examples, CC50 included
| molecular_string | result_value |
| --- | --- |
| CCOC(=O)c1cnc2ccc(OCC)cc2c1Nc1ccc(I)cc1 | ≥ 75 µM |
| CCOC(=O)c1ccc(Nc2cc(C)nc3c2ccc2ccccc23)cc1 | 72.9 µM |
| Cc1ccc(Nc2cc(C)nc3ccc(C)cc23)cc1 | 35.2 µM |
| CCOC(=O)c1ccc2ncc(C(=O)OCC)c(NCc3ccco3)c2c1 | 35.4 µM |
| CCOC(=O)c1ccc2nc(C)cc(Nc3ccc(C)cc3C)c2c1 | 56.1 µM |

Batch request: CC50 for each of the following compounds.
1. Cc1cc(C)c2nc(C)cc(Nc3ccc(O)cc3)c2c1
2. Cc1cc(C)c2nc(C)cc(Nc3ccc(OCc4ccccc4)cc3)c2c1

Return:
["39.3 µM", "27.4 µM"]

* * *

- protocol_summary: in vitro
- measurement_conditions: DNG CC50
Please provide measured CC50 for the entries that follow.
One number for each entry, in µM.

// worked examples, CC50 included
| compound | CC50 [µM] |
| --- | --- |
| COc1cccc2c(Nc3ccc4c(c3)OCCO4)cc(C)nc12 [Compound 22] | 57.2 |
| CCOC(=O)c1ccc2ncc(C(=O)OCC)c(NCc3ccco3)c2c1 [Compound 13] | 35.4 |
| Cc1ccc2nc3c(c(Nc4cccc(C(F)(F)F)c4)c2c1)CCC3 [Compound 26] | 53.1 |
| Cc1ccc2nc(C)cc(NCc3ccco3)c2c1 [Compound 23] | 57.9 |
| CCOC(=O)c1cnc2c(OC)cccc2c1NCc1ccco1 [Compound 67] | 29.9 |

Enquiry: Data request, read-out CC50, for CCOC(=O)c1cnc2ccc(F)cc2c1NCCCN(C)C [Compound 66]
Return: 64.6

* * *

- Tested on: WNV (WN-hRuPac cells)
- protocol_summary: WNV antiviral activity, WN-hRuPac cells, Renilla luciferase
- Assay type: cell-based, West Nile virus
- measurement_conditions: West Nile virus; Secondary Data; WNV; read-out: WNV EC50
pEC50: −log10 of the molar value.
# label = t if pEC50 >= 5 else f

Observe how each entry below is paired with its result.
| molecular_string | tested_system | category_label |
| --- | --- | --- |
| c1ccc2cc(Nc3c4ccccc4nc4ccccc34)ccc2c1 | WNV (WN-hRuPac cells) | t |
| COC(=O)c1ccc(Nc2c3c(nc4ccccc24)CCC3)cc1 | WNV (WN-hRuPac cells) | f |
| Cc1cc(NNC(=O)OCc2ccccc2)c2ccccc2n1 | WNV (WN-hRuPac cells) | f |
| COc1cccc2c(Nc3cccc([N+](=O)[O-])c3)cc(C)nc12 | WNV (WN-hRuPac cells) | t |
| COC(=O)c1ccc(Nc2cc(C)nc3ccc(Cl)cc23)cc1 | WNV (WN-hRuPac cells) | f |
| CCc1ccccc1Nc1c2ccccc2nc2ccccc12 | WNV (WN-hRuPac cells) | f |
| COc1ccc(Nc2cc(C)nc3c2ccc2ccccc23)cc1 | WNV (WN-hRuPac cells) | f |
| CCOc1ccc2nc(C)cc(Nc3ccc(N(C)C)cc3)c2c1 | WNV (WN-hRuPac cells) | t |

Enquiry: Answer whether pEC50 of `CCOc1ccc2nc(C)cc(Nc3ccc(OC)c(OC)c3)c2c1` is greater than or equal to 5.
Return: t

Enquiry: Answer whether pEC50 of `CCOC(=O)c1ccc2ncc(C(=O)OCC)c(NCc3ccco3)c2c1` is greater than or equal to 5.
Return: t

Enquiry: Answer whether pEC50 of `COc1ccc(Nc2cc(C)nc3ccccc23)cc1` is greater than or equal to 5.
Return: f

* * *

- protocol_summary: in vitro
- measurement_conditions: YFV CC50
Please provide measured CC50 for the entries that follow.
Numbers only, in µM.

| compound | observable | unit_of_measure | result_value |
| --- | --- | --- | --- |
| CCOC(=O)c1cnc2c(OC)cccc2c1NC(C)c1ccccc1 (centres unmarked) | CC50 | µM | 49.3 |
| CCOc1ccc2nc(C)cc(Nc3ccc(C)c(Cl)c3)c2c1 | CC50 | µM | 25.3 |
| Cc1cccc(Nc2c3c(nc4ccccc24)CCC3)c1 | CC50 | µM | 28.8 |
| CCOc1ccc2nc(C)cc(Nc3ccc(N(C)C)cc3)c2c1 | CC50 | µM | 31 |

Consider now this further compound.
Enquiry: Data request, read-out CC50, for `Cc1cc(NNC(=O)OCc2ccccc2)c2ccccc2n1`
Return: 51.1

* * *

- protocol_summary: in vitro
- measurement_conditions: WNV CC50
Please provide measured CC50 for the entries that follow.

| molecule | CC50 |
| --- | --- |
| CCOc1ccc2nc(C)cc(Nc3ccc(C)c(Cl)c3)c2c1 [Compound 45] | 25.3 µM |

Batch request: CC50 for each of the following molecules.
1. c1ccc2cc(Nc3c4ccccc4nc4ccccc34)ccc2c1 [Compound 1]
2. COC(=O)c1ccc(Nc2cc(C)nc3c(C)cccc23)cc1 [Compound 61]
3. CCOC(=O)c1cnc2c(C)cc(C)cc2c1NCc1ccco1 [Compound 35]
4. CC(=O)c1cccc(Nc2cc(C)nc3ccccc23)c1 [Compound 17]
5. CCOc1ccc2nc(C)cc(Nc3ccc(N(C)C)cc3)c2c1 [Compound 57]
6. COc1ccc2nc(C)cc(Nc3ccc(OCc4ccccc4Cl)cc3)c2c1 [Compound 43]
7. CCOC(=O)c1ccc2ncc(C(=O)OCC)c(NCCCOC(=O)C(Cl)(Cl)Cl)c2c1 [Compound 64]
8. Cc1cc(C)c2nc(C)cc(Nc3ccc(Cl)c(Cl)c3)c2c1 [Compound 53]

Return:
1. 47.6 µM
2. 45.9 µM
3. 37.2 µM
4. ≥ 75 µM
5. 31 µM
6. 26.1 µM
7. 60.5 µM
8. 49.1 µM

Batch request: CC50 for each of the following molecules.
1. CCOC(=O)c1cnc2c(Cl)c(Cl)ccc2c1NCc1ccco1 [Compound 19]
2. COC(=O)c1ccc(Nc2cc(C)nc3ccc(Cl)cc23)cc1 [Compound 60]
3. CCc1ccccc1Nc1cc(C)nc2c(OC)cccc12 [Compound 24]
4. Cc1ccc2nc(C)cc(N3CCC(C)CC3)c2c1 [Compound 15]
5. CCOC(=O)c1cnc2c(OC)cccc2c1NCc1cccnc1 [Compound 68]
6. Cc1cccc(Nc2c3c(nc4ccccc24)CCC3)c1 [Compound 11]

Return:
1: 20.9 µM; 2: ≥ 75 µM; 3: 57.9 µM; 4: 72.9 µM; 5: 51 µM; 6: 28.8 µM

Batch request: CC50 for each of the following molecules.
1. Cc1cc(C)c2nc(C)cc(Nc3ccc(OCc4ccccc4)cc3)c2c1 [Compound 44]
2. CCOc1ccc2nc(C)cc(Nc3ccc(OC)c(OC)c3)c2c1 [Compound 56]
3. CCc1ccccc1Nc1c2ccccc2nc2ccccc12 [Compound 2]
4. CCOc1ccc2nc(C)cc(Nc3cc(Cl)ccc3OC)c2c1 [Compound 58]
5. Cc1ccc2nc3c(c(Nc4cccc(C(F)(F)F)c4)c2c1)CCC3 [Compound 26]

Return:
1. 27.4 µM
2. 27.8 µM
3. 32.9 µM
4. 18.7 µM
5. 53.1 µM
